Target: TEL-KIT fusion gene transfected cells (Ba/F3) (Homo sapiens, UniProt P10721)
Sequence (P10721 26-976 limits assumed, change not shown): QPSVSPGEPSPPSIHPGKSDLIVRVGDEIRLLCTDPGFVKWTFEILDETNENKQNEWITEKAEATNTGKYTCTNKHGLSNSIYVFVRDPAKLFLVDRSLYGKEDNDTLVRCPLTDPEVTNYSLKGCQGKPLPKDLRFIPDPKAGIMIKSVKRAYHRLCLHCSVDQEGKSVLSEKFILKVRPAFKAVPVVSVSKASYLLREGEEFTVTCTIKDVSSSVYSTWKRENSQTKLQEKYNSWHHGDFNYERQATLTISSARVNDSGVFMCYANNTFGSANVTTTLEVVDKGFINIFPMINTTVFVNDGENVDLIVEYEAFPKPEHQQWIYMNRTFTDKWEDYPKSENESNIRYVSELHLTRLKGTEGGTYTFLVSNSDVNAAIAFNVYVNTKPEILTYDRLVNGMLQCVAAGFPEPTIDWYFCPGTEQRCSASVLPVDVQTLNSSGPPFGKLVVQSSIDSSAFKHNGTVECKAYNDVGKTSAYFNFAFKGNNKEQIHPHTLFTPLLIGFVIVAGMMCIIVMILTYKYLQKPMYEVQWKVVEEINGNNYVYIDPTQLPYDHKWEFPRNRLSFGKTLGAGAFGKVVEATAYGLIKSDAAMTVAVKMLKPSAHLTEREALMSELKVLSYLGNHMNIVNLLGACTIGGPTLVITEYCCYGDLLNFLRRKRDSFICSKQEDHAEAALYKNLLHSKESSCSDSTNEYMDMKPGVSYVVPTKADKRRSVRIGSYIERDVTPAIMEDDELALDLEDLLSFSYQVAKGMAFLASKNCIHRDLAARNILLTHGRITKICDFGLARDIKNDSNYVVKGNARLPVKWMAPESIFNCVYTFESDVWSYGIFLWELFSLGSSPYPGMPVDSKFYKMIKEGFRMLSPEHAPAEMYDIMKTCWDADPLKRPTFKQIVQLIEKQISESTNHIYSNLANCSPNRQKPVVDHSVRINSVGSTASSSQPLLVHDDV
Test: Suppression of proliferation of TEL-KIT fusion gene transfected Ba/F3 cells;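 also: viable cells quantified via formazan from tetrazolium reduction, inhibition scaled with 0.1% DMSO control as 0% and medium-only blank as 100%, IC50 from two-parameter logistic fit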
Conditions: read-out: KIT/BaF3 proliferation inhibition (IC50); TEL-KIT expressing Ba/F3 cells, 72 hours, final concentration 0.1 to 10,000 nM
reported_property: IC50 (nM)
Could you give me the number in nM? Just the number is fine.

- input_smiles: "Cc1ccc(C(=O)N[C@H]2CCCC[C@@H]2O)cc1C#Cc1cncc(-c2ccccc2)c1"
  tested_on: "TEL-KIT fusion gene transfected cells (Ba/F3) (Homo sapiens, UniProt P10721)"
  recorded_number: 410
- input_smiles: "Cc1ccc(C(=O)N[C@H]2CCCC[C@@H]2O)cc1/C=C/c1cncc(-c2ccccc2)c1"
  tested_on: "TEL-KIT fusion gene transfected cells (Ba/F3) (Homo sapiens, UniProt P10721)"
  recorded_number: 700
- input_smiles: "Cc1ccc(C(=O)N[C@H]2CCCC[C@@H]2O)cc1C#Cc1cncc(-c2ccccc2)n1"
  tested_on: "TEL-KIT fusion gene transfected cells (Ba/F3) (Homo sapiens, UniProt P10721)"
  recorded_number: 300

Now, please, on to the next compound.
The reported IC50 of the compound `Cc1ccc(CNc2cncc(-c3ncccn3)c2)cc1NC(=O)N[C@@H]1CCCC[C@@H]1O` was 2600
